Read-out: Interleukin 17F (IL17F), IL17F (gene 112744)
Test: BSK_BT_xIL17F: BioMAP Diversity Plus: BT Assay for Interleukin 17F (IL17F) Biomarker Activity (AID 2284243)
Details: primary human B cells with PBMC
Calls of active or inactive are those of the source. Rule for the calls: active = hit-call score of the fitted dose curve at least 0.9, where 1 is the maximum; inactive = score below 0.9.
observable: AC50

Past entries and their recorded results:
# compound, AC50
data = [
    ("NC(=S)Nc1ccccc1", "inactive"),
    ("Nc1cccc2ccccc12", "inactive"),
    ("O=C(OC1CCCCC1)c1ccccc1C(=O)OC1CCCCC1", "30.8 µM (active)"),
    ("O=C(O)C(F)(F)C(F)(F)C(F)(F)C(F)(F)C(F)(F)C(F)(F)F", "inactive"),
    ("CCCCC(CC)CO[N+](=O)[O-] (centres undefined)", "inactive"),
]

Please state, for each entry, its recorded AC50.
1. CCSC(C)CC1CC(=O)C(C(CC)=NOC/C=C/Cl)=C(O)C1 (centres undefined)
2. COP(=S)(OC)Oc1c(Cl)cc(C)cc1Cl
3. Nc1ccc(-c2ccc(N)c(Cl)c2)cc1Cl

A)
inactive
inactive
20 µM (active)

Form: compound = CCCCCCCCC(=O)NCc1ccc(O)c(OC)c1 ; AC50 = inactive
